All values here come from PubChem BioAssay.

molecular target: Potassium voltage-gated channel subfamily KQT member 1 (Homo sapiens) (UniProt P51787); assay: KCNQ1 potassium channel potentiators, confirmation, FluxOR thallium flux, CHO cells, duplicates (AID 493007); details: KCNQ1 cell line, FluxOR thallium flux fluorescence, at 10 µM, % of reference activator effect, buffer zero
Sequence (P51787 whole entry, looked up): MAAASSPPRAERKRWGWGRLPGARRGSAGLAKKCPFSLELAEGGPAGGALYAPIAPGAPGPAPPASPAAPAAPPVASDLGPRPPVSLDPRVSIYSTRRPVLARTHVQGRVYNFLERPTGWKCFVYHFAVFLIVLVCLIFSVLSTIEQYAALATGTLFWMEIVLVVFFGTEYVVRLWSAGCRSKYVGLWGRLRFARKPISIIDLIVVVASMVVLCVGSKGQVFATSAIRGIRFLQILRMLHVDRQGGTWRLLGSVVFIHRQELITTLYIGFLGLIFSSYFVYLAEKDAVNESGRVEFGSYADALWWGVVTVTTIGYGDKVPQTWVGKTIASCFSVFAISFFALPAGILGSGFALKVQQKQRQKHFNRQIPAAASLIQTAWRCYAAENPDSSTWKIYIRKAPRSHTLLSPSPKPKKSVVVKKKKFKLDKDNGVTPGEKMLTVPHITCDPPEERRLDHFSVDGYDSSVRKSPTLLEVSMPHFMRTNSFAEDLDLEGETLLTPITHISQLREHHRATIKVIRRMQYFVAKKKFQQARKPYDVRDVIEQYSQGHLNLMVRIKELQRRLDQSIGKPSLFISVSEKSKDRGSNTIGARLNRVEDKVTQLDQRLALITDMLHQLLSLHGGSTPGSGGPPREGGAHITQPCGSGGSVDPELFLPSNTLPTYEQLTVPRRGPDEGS
The source made the active and inactive calls.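 Rule for the calls: active = potentiation averaged over duplicate wells exceeding buffer-only control mean by more than 3 SD; inactive = the rest.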
Select the correct class. Options are active, inactive and nothing else.

Examples from the recorded data:
- Cc1ccc(O)c(C(=O)CC(=O)c2ccccc2Cl)c1: active
- S=c1[nH]c2ccccc2c2ccccc12: inactive
- S=c1[nH]cnc2sc(-c3ccccc3)cc12: active
- COc1cccc(C(=O)Nc2nc(-c3ccccc3)c(-c3ccccc3)o2)c1: active

Turning now to a further compound:
Lookup: Hey, what did the test say about CCc1nnc(NC(=O)CSc2n[nH]c(-c3ccccc3O)n2)s1 ?
Found: inactive
